Tested on: E. coli V3065 growth, OD600 absorbance
Experiment: E. coli V3065 growth inhibition, dose response, counter-screen for AddAB recombination inhibitor project, absorbance, OD600 (AID 504678)
Activity calls are given as the source filed them.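 Rule for the calls: active = compound whose IC50 against bacterial viability is at or below 10 µM; inactive = IC50 above 10 µM.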
Reported IC50 values follow for various molecules

IN: Reported IC50 for O=C(NCc1cccnc1)c1ccc([N+](=O)[O-])o1 : what is it?
OUT: > 39.5 µM (inactive)

IN: Reported IC50 for O=C(OCC(=O)c1cccs1)c1ccc([N+](=O)[O-])o1 : what is it?
OUT: > 119 µM (inactive)

IN: Reported IC50 for O=C(Nc1ccc(N2CCOCC2)cc1)c1ccc([N+](=O)[O-])o1 : what is it?
OUT: 17.3 µM (inactive)

IN: Reported IC50 for O=C(Nc1ncccn1)c1ccc([N+](=O)[O-])o1 : what is it?
OUT: 33 µM (inactive)

IN: Reported IC50 for Cc1cccnc1NC(=O)c1ccc([N+](=O)[O-])o1 : what is it?
OUT: 39.5 µM (inactive)

IN: Reported IC50 for Cc1ccc2nc(/C(C#N)=C\c3ccc([N+](=O)[O-])o3)[nH]c2c1 : what is it?
OUT: > 119 µM (inactive)

IN: Reported IC50 for CC(=O)Nc1ccc2nc(NC(=O)c3ccc([N+](=O)[O-])o3)sc2c1 : what is it?
OUT: > 119 µM (inactive)

IN: Reported IC50 for C=CCn1c(Sc2ncc([N+](=O)[O-])s2)n[nH]c1=O : what is it?
OUT: 20.4 µM (inactive)

IN: Reported IC50 for CCn1cc(C(=O)O)c(=O)c2cnc(N3CCN(C(=S)Nc4ccccc4C(F)(F)F)CC3)nc21 : what is it?
OUT: > 39.5 µM (inactive)

IN: Reported IC50 for N#Cc1c(NC(=O)c2ccc([N+](=O)[O-])o2)sc2c1CCC2 : what is it?
OUT: > 119 µM (inactive)

IN: Reported IC50 for NC(=O)c1ccsc1NC(=O)COC(=O)c1ccc([N+](=O)[O-])o1 : what is it?
OUT: > 119 µM (inactive)

IN: Reported IC50 for O=C(Nc1cccc(NC(=O)c2ccccc2Cl)c1)c1ccc([N+](=O)[O-])o1 : what is it?
OUT: > 119 µM (inactive)
